# Tested on: p38-beta
# Construct: gene MAPK11
# conditionContext: concentration: 1 μM, replicates: in singlicate; n = 1;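 further: KINOMEscan kinase panel screen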
Listed next: entries and their corresponding %Inh.
resultType: %Inh (%)

In [3]: df
Out[3]:
                                    molecule  resulttype  valuemeasured
 0  O=C(NCCNc1ccnc(Nc2ccc(F)cc2)n1)c1cc2ccccc2s1        %Inh              0
 1  Cc1cccc(-c2nc(Nc3ccc4ncsc4c3)c3ccccc3n2)n1        %Inh              0
 2  O=C(Nc1cccc(-c2nn3ncccc3c2-c2ccnc(Nc3cccc(C(F)(F)F)c3)n2)c1)c1c(F)cccc1F        %Inh             24
 3  COc1cc2c(cc1OC[C@@H](O)CO)ncc1c3ccc(C#N)cc3[nH]c21        %Inh             15
 4  COc1ccc(CNC(=O)NC2CCN(c3ccnc(Nc4ccc(OC)cc4)n3)C2)cc1 (centres unmarked)        %Inh              0
 5  Cc1nnc(-c2ccc(C)c(-c3ccc(C(=O)Nc4ccc(NS(C)(=O)=O)cc4)cc3)c2)o1        %Inh             70
 6  O=C(NCCCN1CCOCC1)c1cccc(Nc2nccc(Nc3ccc(Oc4ccccc4)cc3)n2)c1        %Inh              0
 7  COc1ccc(COc2cc(-n3cnc4ccccc43)sc2C(N)=O)cc1        %Inh              0
 8  COc1cc2ncn(-c3cc(OCc4sccc4Cl)c(C(N)=O)s3)c2cc1OC        %Inh              0
 9  COc1ccc(Nc2nccc(N3CCC(NC(=O)Nc4cc(C)ccc4C)C3)n2)cc1 (centres unmarked)        %Inh              0
10  C[C@@H](Oc1cc(-n2cnc3ccc(NC(=O)NC(C)(C)C)cc32)sc1C(N)=O)c1ccccc1Cl        %Inh              0
11  CN(C(=O)c1ccc(-c2cc(-c3c[nH]nc3-c3ccccn3)ccn2)cc1)C1CCOCC1        %Inh              3
12  NS(=O)(=O)CCc1cccc(Nc2nccc(-c3c(-c4cccc(NC(=O)c5c(F)cccc5F)c4)nn4ccccc34)n2)c1        %Inh           98.7
13  CC(=O)Nc1ccc(COc2ccc(Nc3ccnc4cc(-c5ccccn5)ccc34)cc2)cc1.Cl        %Inh              0
14  Cn1ccc2ncnc(Oc3ccc(NC(=O)Nc4ccncc4)c(Cl)c3)c21        %Inh             18
15                CCCCCc1nc2c(N)ncnc2n1CCCCC        %Inh             19
16  NCCNS(=O)(=O)c1ccc(-c2ccnc3[nH]ccc23)cc1        %Inh              0

* * *

The following molecules are listed with their measured %Inh values.
# Test system: NEK9
# conditionContext: concentration: 1 μM, replicates: in singlicate; n = 1
resultType: %Inh

>>> print(df.to_string())
                                   molecule  valuemeasured
0  CCc1ccnc(/C=C/c2n[nH]c3cc(Sc4ccccc4C(=O)NC)ccc23)c1             0%
1  CC(=O)Nc1ccc(COc2ccc(Nc3ccnc4cc(-c5ccccn5)ccc34)cc2)cc1.Cl [GW440148]            20%
2  COc1cc2c(cc1OCCN1CCN(C)CC1)ncc1c3ccc(C#N)cc3[nH]c21             0%
3  Nc1nccc(-c2c(-c3ccc(F)cc3)ncn2C2CCN(CC(F)(F)F)CC2)n1 [SB-236560]            20%
4  COc1ccc(Nc2nccc(N3CCC(NC(=O)Nc4cccc(C(C)=O)c4)C3)n2)cc1 (centres unmarked) [GSK1379731]             0%
5  c1ccc(-c2cc(-c3c[nH]nc3-c3ccccn3)ccn2)cc1 [GW576604]            17%
6  C[C@@H](Oc1cc(-n2cnc3ccc(NC(=O)NC(C)(C)C)cc32)sc1C(N)=O)c1ccccc1Cl [GSK346294]            16%
7  COc1ccc(S(=O)(=O)NC2CCN(c3cc(C)nc(Nc4cccc(C#N)c4)n3)CC2)cc1.O=C(O)C(F)(F)F [GSK1653539]             0%

Entry source: paper PMC5540273
